- assayDetails: Plasma pharmacokinetics after a single subcutaneous administration of LEN
- Format: in vivo, rhesus macaques
- particulars: male, outbred Indian-origin, rhesus monkey, plasma; 5 mg/kg sc, mean ± SD
measuredEndpoint: AUC(0-t) (µM·h)
Just the number in µM·h, nothing appended.

q: So what's the measured AUC(0-t) for this one? CC(C)(C#Cc1ccc(-c2ccc(Cl)c3c(NS(C)(=O)=O)nn(CC(F)(F)F)c23)c([C@H](Cc2cc(F)cc(F)c2)NC(=O)Cn2nc(C(F)(F)F)c3c2C(F)(F)[C@@H]2C[C@H]32)n1)S(C)(=O)=O [LEN, Lenacapavir]
a: 9.3

* * *

- assayDetails: Plasma pharmacokinetics after a single subcutaneous administration of LEN
- Type: in vivo, rhesus macaques
- particulars: male, Indian-origin (outbred), rhesus monkey, plasma, subcutaneous, 75 mg/kg, Plasma LEN, animal V426, 75 mg/kg, week 0 post challenge
measuredEndpoint: concentration at 0 weeks post challenge (nM)
Express the result in nM but write the number alone.

q: So what's the measured concentration at 0 weeks post challenge for this one? CC(C)(C#Cc1ccc(-c2ccc(Cl)c3c(NS(C)(=O)=O)nn(CC(F)(F)F)c23)c([C@H](Cc2cc(F)cc(F)c2)NC(=O)Cn2nc(C(F)(F)F)c3c2C(F)(F)[C@@H]2C[C@H]32)n1)S(C)(=O)=O
a: 178

* * *

- assayDetails: Plasma pharmacokinetics after a single subcutaneous administration of LEN
- Assay type: in vivo, rhesus macaques
- particulars: male, Indian-origin (outbred), rhesus monkey, plasma, subcutaneous, 75 mg/kg, Plasma LEN, animal V417, 75 mg/kg, week 1 post challenge
measuredEndpoint: concentration at 1 weeks post challenge (nM)
Use nM as the unit, but write only the number.

q: Data request, read-out concentration at 1 weeks post challenge, for CC(C)(C#Cc1ccc(-c2ccc(Cl)c3c(NS(C)(=O)=O)nn(CC(F)(F)F)c23)c([C@H](Cc2cc(F)cc(F)c2)NC(=O)Cn2nc(C(F)(F)F)c3c2C(F)(F)[C@@H]2C[C@H]32)n1)S(C)(=O)=O
a: 43.9

* * *

- assayDetails: Plasma pharmacokinetics after a single subcutaneous administration of LEN
- Format: in vivo, rhesus macaques
- particulars: male, Indian-origin (outbred), rhesus monkey, plasma, subcutaneous, 75 mg/kg, Plasma LEN (Mean), 75 mg/kg sc, week 11 post dose
measuredEndpoint: concentration at 11 week (nM)
Value expressed in nM; do not type the unit.

q: Which concentration at 11 week value belongs to CC(C)(C#Cc1ccc(-c2ccc(Cl)c3c(NS(C)(=O)=O)nn(CC(F)(F)F)c23)c([C@H](Cc2cc(F)cc(F)c2)NC(=O)Cn2nc(C(F)(F)F)c3c2C(F)(F)[C@@H]2C[C@H]32)n1)S(C)(=O)=O ?
a: 71.3

* * *

- assayDetails: Plasma pharmacokinetics after a single subcutaneous administration of LEN
- Type: in vivo, rhesus macaques
- particulars: male, Indian-origin (outbred), rhesus monkey, plasma, subcutaneous, 50 mg/kg, Plasma LEN, animal V470, 50 mg/kg, week 18 post challenge
measuredEndpoint: concentration at 18 weeks post challenge (nM)
Give the value, in units of nM, as a plain number.

q: Entry CC(C)(C#Cc1ccc(-c2ccc(Cl)c3c(NS(C)(=O)=O)nn(CC(F)(F)F)c23)c([C@H](Cc2cc(F)cc(F)c2)NC(=O)Cn2nc(C(F)(F)F)c3c2C(F)(F)[C@@H]2C[C@H]32)n1)S(C)(=O)=O has what concentration at 18 weeks post challenge?
a: 10.5

These measurements were taken from paper PMC10425210.
